TEST DESCRIPTION: AP1 Signaling Pathway (AID 357);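 also: ME-180 reporter cells stimulated with EGF at its EC50 level; % is scaled to controls: 0 for no effect and ±100 for the full control effect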
CONDITION LABEL: ME-180 (cervical carcinoma) AP-1-bla reporter, EGF-induced, beta-lactamase ratio, 5 h; at 17.2 µM (top of the series) unless noted
Records with an inconclusive call do not appear.
VALUE KIND: activity change, negative = inhibition (%)
# number only, unit % dropped from output

Q: Can you share its activity change, negative = inhibition? I mean this molecule: Cc1[nH]c(=O)[nH]c(=O)c1S(=O)(=O)N1CCCC1
Ans: 11.7

Q: Queued: CCCCOC(=O)CCc1nc2ccccc2[nH]1
Ans: 5.71

Q: Queued: COc1ccc(NC(=O)Nc2cccc(C(=O)N3CCOCC3)c2)cc1OC
Ans: 3.36

Q: Queued: COc1cccc(C2C(C(=O)c3sc(C)nc3C)=C(O)C(=O)N2CCN2CCOCC2)c1OC (stereo not given)
Ans: 3.76

Q: Queued: COc1ccc(CC(=O)OCN2C(=O)c3ccccc3C2=O)cc1
Ans: 11.9

Q: Queued: CCn1c(SCC(=O)NC2CCCCC2C)nnc1-c1ccc(OC)cc1 (stereo not given)
Ans: -8.83

Q: Queued: C[C@]12CC[C@@H]3c4ccc(O[C@@H]5O[C@H](C(=O)O)[C@@H](O)[C@H](O)[C@H]5O)cc4CC[C@H]3[C@@H]1C[C@@H](O)[C@@H]2O
Ans: 4.45

Q: Queued: CNc1ccccc1-c1nc2ccccc2n(C)c1=O
Ans: 11.2

Q: Queued: Cc1cc(CCC(=O)O)c(C)cc1CCC(=O)O
Ans: 14.2

Q: Queued: O=C(c1ccco1)N1CCN(c2ncnc3c2[nH]c2ccccc23)CC1
Ans: -12
